# Ki measurements, system: Melatonin receptor type 1A (Homo sapiens, UniProt P48039)
# Sequence (P48039 whole entry): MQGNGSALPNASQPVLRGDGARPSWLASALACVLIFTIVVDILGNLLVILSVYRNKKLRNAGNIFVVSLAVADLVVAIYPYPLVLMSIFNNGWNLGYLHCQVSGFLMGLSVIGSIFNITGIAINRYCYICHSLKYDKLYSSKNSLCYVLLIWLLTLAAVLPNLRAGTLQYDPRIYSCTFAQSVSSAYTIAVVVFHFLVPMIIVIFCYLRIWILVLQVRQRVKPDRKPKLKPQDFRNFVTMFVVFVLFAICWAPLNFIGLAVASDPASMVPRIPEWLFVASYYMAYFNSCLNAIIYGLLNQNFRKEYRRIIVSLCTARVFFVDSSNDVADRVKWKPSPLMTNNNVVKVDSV

# lookup: Ki of COc1ccc2c(c1)c(CCNC(C)=O)cn2C
2.6 nM

Repeat for the following molecule: COc1ccc2c(c(CCNC(C)=O)c(I)n2C)c1[N+](=O)[O-]
1880 nM

Repeat for the following molecule: COc1ccc2c(c(CCNC(C)=O)cn2C)c1[N+](=O)[O-]
8560 nM

Repeat for the following molecule: COc1cc([N+](=O)[O-])c2[nH]cc(CCNC(C)=O)c2c1
49 nM
